Biological target: Lysine-specific demethylase 4C (Homo sapiens)
Assay: inhibitors of GASC-1 histone demethylase, primary screen, biochemical, fluorescence, DELFIA europium (AID 2099);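 also: signal counts dimethyl H3K9 product captured on neutravidin plate; 0% = median of DMSO wells and 100% = 0.3 times that DMSO median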
Settings: GST-JMJD2C(1-420) H3K9me3 demethylation, at 2.35 µM, hits give high values
Screen size: about 330,000 compounds; about 230 (0.07%) were called active. The sample as a whole holds a higher share of actives than the screen did.
Task for the reader: assign each of the following molecules its reported inhibition.
Just the number please, in %, no unit attached.

State recorded inhibition with Lysine-specific demethylase 4C (Homo sapiens), entry O=C1N=c2ccccc2=C/C1=C\c1c(O)[nH]c(=S)[nH]c1=O , no comment.
0.999

State recorded inhibition with Lysine-specific demethylase 4C (Homo sapiens), entry COc1ccc(CN2CCN(c3ccccc3F)CC2)c(OC)c1 , no comment.
2.07

State recorded inhibition with Lysine-specific demethylase 4C (Homo sapiens), entry NCC(O)c1ccc(O)cc1 (centres undefined) , no comment.
4.95

State recorded inhibition with Lysine-specific demethylase 4C (Homo sapiens), entry O=c1[nH]c(O)c(C=Nc2cc(F)cc(F)c2)c(=O)[nH]1 , no comment.
8.75
